These data points were gathered from ChEMBL document CHEMBL1138518.

# Test system: SK-BR-3
# PROCEDURE_DETAILS: Cytotoxicity against human SKBR3 cells after 72 hrs by celltiter-glo assay
# Format: functional, cell-based
# EXPERIMENTAL_CONDITIONS: Homo sapiens, SK-BR-3, 72 h
Label label 1 when IC50 is strictly below 0.1 µM; otherwise label label 0.

Worked examples, 3 compounds total:
[[record]]
compound = "CO[C@H]1/C=C\\C=C(/C)C(=O)NC2=CC(=O)C(NCCN(C)C)=C(C[C@@H](C)C[C@H](OC)[C@H](NCCF)[C@@H](C)/C=C(\\C)[C@@H]1OC(N)=O)C2=O (stereo in doubt)"
category_label = "label 0"

[[record]]
compound = "CO[C@H]1[C@@H](OC)C[C@H](C)CC2=C(NCCc3c[nH]cn3)C(=O)C=C(NC(=O)/C(C)=C/C=C\\[C@H](OC)[C@@H](OC(N)=O)/C(C)=C/[C@@H]1C)C2=O (stereo in doubt)"
category_label = "label 1"

[[record]]
compound = "CO[C@H]1/C=C\\C=C(/C)C(=O)NC2=CC(=O)C(NCCN(C)C)=C(C[C@@H](C)C[C@H](OC)[C@H](OC(=O)NN)[C@@H](C)/C=C(\\C)[C@@H]1OC(N)=O)C2=O"
category_label = "label 0"


Task item: Quick check: IC50 of CO[C@H]1[C@@H](OC)C[C@H](C)CC2=C(NCCF)C(=O)C=C(NC(=O)/C(C)=C/C=C\[C@H](OC)[C@@H](OC(N)=O)/C(C)=C/[C@@H]1C)C2=O (stereo in doubt) under 0.1 µM?
Reply: label 0

Task item: Quick check: IC50 of CO[C@H]1C[C@H](C)CC2=C(NCCN(C)C)C(=O)C=C(NC(=O)/C(C)=C/C=C\[C@H](OC)[C@@H](OC(N)=O)/C(C)=C/[C@H](C)/C1=N\O)C2=O (stereo in doubt) under 0.1 µM?
Reply: label 1

Task item: Quick check: IC50 of CO[C@H]1/C=C\C=C(/C)C(=O)NC2=CC(=O)C(NCCN(C)C)=C(C[C@@H](C)C[C@H](OC)[C@H](NCCC(F)(F)F)[C@@H](C)/C=C(\C)[C@@H]1OC(N)=O)C2=O (stereo in doubt) under 0.1 µM?
Reply: label 0

Task item: Quick check: IC50 of CO[C@H]1C[C@H](C)CC2=C(NCCF)C(=O)C=C(NC(=O)/C(C)=C/C=C\[C@H](OC)[C@@H](OC(N)=O)/C(C)=C/[C@H](C)/C1=N\O)C2=O under 0.1 µM?
Reply: label 0

Task item: Quick check: IC50 of CO[C@H]1[C@@H](OC)C[C@H](C)CC2=C(N3CCC3)C(=O)C=C(NC(=O)/C(C)=C/C=C\[C@H](OC)[C@@H](OC(N)=O)/C(C)=C/[C@@H]1C)C2=O (stereo in doubt) under 0.1 µM?
Reply: label 1

Task item: Quick check: IC50 of CNCCNC1=C2C[C@@H](C)C[C@H](OC)[C@H](OC(=O)CN)[C@@H](C)/C=C(\C)[C@H](OC(N)=O)[C@@H](OC)/C=C\C=C(/C)C(=O)NC(=CC1=O)C2=O (stereo in doubt) under 0.1 µM?
Reply: label 0
